Provenance of the data: the supplement of paper PMC3974653

Test system: MTT (mouse pheochromocytoma)
test name: IC50 of cell viability (ATP content)
condition details: (24 or 48 h)
Listed below: IC50 of cell viability values for each entry.

The examples below pair each entry with its known result.
molecule	IC50 of cell viability
CO[C@@]1(NC(=O)[C@@H]2S\C(S2)=C(\C(N)=O)C(O)=O)[C@@H]3SC\C(=C(/N3C1=O)C(O)=O)CSC4=NN=N[N]4C (some centres not stated) [Cefotetan]	> 46 µM
CCC1(CCC(C)C)C(=O)NC(=O)NC1=O [(?)-Amobarbital]	> 46 µM

Req: Tell me the measured IC50 of cell viability of COc1ccc2cc(C(C)C(=O)[O-])ccc2c1.[Na+] (stereo in doubt) [(R) -Naproxen sodium salt] , please.
Resp: > 46 µM

====

System: MTT (mouse pheochromocytoma)
test name: IC50 of cell viability (ATP content)
condition details: (24 or 48 h)
quantity: IC50 of cell viability

Req: Tell me the measured IC50 of cell viability of CN1C=C(C2=CC=CC=C12)C3=C(/C(=O)NC\3=O)C4=CN(C5CCN(CC6=NC=CC=C6)CC5)C7=C4C=CC=C7 , please.
Resp: > 46 µM

Req: Tell me the measured IC50 of cell viability of NCCNCCNCCN , please.
Resp: > 46 µM

Req: Tell me the measured IC50 of cell viability of CC[N+]1(CC)CCC(=C(c2ccccc2)c2ccccc2)C1C (configuration not stated) [PRIFINIUM BROMIDE] , please.
Resp: > 46 µM

Req: Tell me the measured IC50 of cell viability of O=C(c1ccccc1)c1ccccc1 , please.
Resp: > 46 µM

Req: Tell me the measured IC50 of cell viability of CCOC(=O)Oc1c(OC)cc(C(=O)O[C@@H]2C[C@H]3CN4CCc5c([nH]c6cc(OC)ccc56)[C@@H]4C[C@@H]3[C@@H](C(=O)OC)[C@H]2OC)cc1OC , please.
Resp: > 46 µM

Req: Tell me the measured IC50 of cell viability of O=C(O)CCCc1ccc(N(CCCl)CCCl)cc1 , please.
Resp: > 46 µM

Req: Tell me the measured IC50 of cell viability of O=C([O-])c1cc(/N=N/c2ccc(O)c(C(=O)[O-])c2)ccc1O [OLSALAZINE SODIUM] , please.
Resp: > 46 µM

====

Test system: MTT (mouse pheochromocytoma)
test name: IC50 of cell viability (ATP content)
condition details: (24 or 48 h)
Where a name gives a salt, the structure may show the parent alone.
quantity: IC50 of cell viability

The examples below pair each entry with its known result.
>>> df
                                   compound                     tested_on                quantity  reported_result
0  CC(N)C(=O)OC(C)(C)Cc1ccc(Cl)cc1 (centres undefined) [ALAPROCLATE]  MTT (mouse pheochromocytoma)  IC50 of cell viability          > 46 µM
1  CNC1(c2ccccc2Cl)CCCCC1=O (stereo in doubt) [(S)-(-)-Ketamine]  MTT (mouse pheochromocytoma)  IC50 of cell viability          > 46 µM
2  COc1ccc(OC)c(C[C@H](C)N)c1 [(+)-2,5-Dimethoxyamphetamine]  MTT (mouse pheochromocytoma)  IC50 of cell viability          > 46 µM
3                CN(C)CCc1c[nH]c2cccc(O)c12  MTT (mouse pheochromocytoma)  IC50 of cell viability          > 46 µM
4  COC1=C(OC)C=C(CNCC(O)COC2=CC=C3NC(=O)\C=C/C3=C2)C=C1 (centres undefined)  MTT (mouse pheochromocytoma)  IC50 of cell viability          > 46 µM
5  CN(C)CC[N]1N=NN=C1SC\C2=C(\[N@]3[C@@H](SC2)[C@H](NC(=O)CC4=CSC(=N4)N)C3=O)C(O)=O [Cefotiam hydrochloride]  MTT (mouse pheochromocytoma)  IC50 of cell viability          > 46 µM

Req: Tell me the measured IC50 of cell viability of N[C@@H](C(=O)N[C@H]1[C@H]2SC\C(=C(/N2C1=O)C(O)=O)CSC3=C[NH]N=N3)C4=CC=C(O)C=C4 , please.
Resp: > 46 µM

Req: Tell me the measured IC50 of cell viability of O=C1NCCN1c1ncc([N+](=O)[O-])s1 , please.
Resp: > 46 µM
